Experiment: Half life in human at 0.5 mg, po administered as single dose measured on day 14 by LC-MS/MS analysis
Format: ADME, organism-based
Conditions: in vivo

{"Test Smiles": "CCCc1ccc(COc2ccc3c(c2)CCC(CN2CC(C(=O)O)C2)=C3C)c(OC)c1", "half-life": "3.41 to 3.71 days"}
